Provide the reported viability, T/C of each item.
Test system: 299254-011-R-J1-PDC complex spheroids viability;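 also: spheroids exposed to the agents for seven days before readout; percent viability relative to DMSO vehicle control wells = 100%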
Assay: Anticancer human tumor 299254-011-R-J1-PDC patient-derived melanoma cell line growth inhibition [GQUAD]
Details: second compound 3.16 µM; first compound 1 µM; active compounds read low
Number in %, nothing else.

Query: viability, T/C; subject: CC(C)n1c(=O)n(C)c2cnc3cc(F)c(-c4ccc(OCCCN5CCCCC5)nc4)cc3c21 + Cc1[nH]c2ccc(F)cc2c1-c1nc2c3cccnc3c3ncccc3c2[nH]1
111

Requested read-out: viability, T/C. Entry: CC(C)(O)C1CCC(Nc2ccc3ncc(-c4cccc(C(F)(F)F)c4)n3n2)CC1 (stereo not drawn) + CN(C)c1ccc(Nc2c3ccc(NC(=O)CCN4CCCC4)cc3nc3cc(NC(=O)CCN4CCCC4)ccc23)cc1
112

Would you mind telling me what viability, T/C value was observed for CCCS(=O)(=O)Nc1ccc(F)c(C(=O)c2c[nH]c3ncc(-c4ccc(Cl)cc4)cc23)c1F + CN(C)c1ccc(Nc2c3ccc(NC(=O)CCN4CCCC4)cc3nc3cc(NC(=O)CCN4CCCC4)ccc23)cc1 ?
97
